Provide the recorded NET, percent of control-specific binding for the entries that follow.
# experimentalTarget: NET (h) (Homo sapiens)
# Construct: host or cells: CHO cells
# Sequence (P23975 whole entry): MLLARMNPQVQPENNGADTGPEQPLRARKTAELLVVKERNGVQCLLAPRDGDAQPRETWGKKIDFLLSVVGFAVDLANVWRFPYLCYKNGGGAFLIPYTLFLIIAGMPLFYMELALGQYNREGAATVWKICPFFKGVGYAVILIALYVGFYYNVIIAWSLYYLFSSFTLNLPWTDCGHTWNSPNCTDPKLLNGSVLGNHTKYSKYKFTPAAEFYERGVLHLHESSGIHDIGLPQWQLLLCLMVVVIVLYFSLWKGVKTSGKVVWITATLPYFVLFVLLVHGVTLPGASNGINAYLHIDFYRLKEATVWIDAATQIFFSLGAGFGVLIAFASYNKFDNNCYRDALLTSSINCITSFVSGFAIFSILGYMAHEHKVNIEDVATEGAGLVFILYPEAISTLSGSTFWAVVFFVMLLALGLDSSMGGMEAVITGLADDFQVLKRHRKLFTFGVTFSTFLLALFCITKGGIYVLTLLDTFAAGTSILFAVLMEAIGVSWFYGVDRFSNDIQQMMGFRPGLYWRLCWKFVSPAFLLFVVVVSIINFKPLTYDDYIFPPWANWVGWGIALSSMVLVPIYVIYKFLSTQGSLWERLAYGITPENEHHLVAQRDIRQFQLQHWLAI
# assayMethodText: Competition assay to measure binding affinity at norepinephrine transporter (NET)
# runParameters: test ligand 10 μM; [3H]nisoxetine 1 nM

// below: answered compounds
>>> reportedresult("N[C@@H](Cc1c[nH]c2ccccc12)C(=O)O [tryptophan, reference compound]")
"1%"
>>> reportedresult("c1cc2c(cc1CCN1CCOCC1)OCO2 [A(VII)]")
"0%"
>>> reportedresult("CON(C)C(C)Cc1ccc2c(c1)OCO2 (stereo not shown) [A(XVIII)]")
"1%"
>>> reportedresult("COc1cc2c(cc1CC(=O)NCCO)OCO2 [A(XXII)]")
"1%"
>>> reportedresult("COc1ccc2[nH]cc(CCNC(C)=O)c2c1 [Melatonin, reference compound]")
"−2%"

# batch size: 2; output NET, percent of control-specific binding per entry
1. CC(Cc1ccc2c(c1)OCCO2)NCc1cc2c(cc1Br)OCO2 (stereo not shown) [A(IX)]
2. CNC(C)Cc1ccc2c(c1)OCO2 (stereo not shown) [MDMA, reference compound]

Reply |
1: 47%; 2: 3%

====

# experimentalTarget: 5-HT2C (h) (Homo sapiens, UniProt P28335)
# Construct: host or cells: HEK-293 cells
# Sequence (P28335 33-458): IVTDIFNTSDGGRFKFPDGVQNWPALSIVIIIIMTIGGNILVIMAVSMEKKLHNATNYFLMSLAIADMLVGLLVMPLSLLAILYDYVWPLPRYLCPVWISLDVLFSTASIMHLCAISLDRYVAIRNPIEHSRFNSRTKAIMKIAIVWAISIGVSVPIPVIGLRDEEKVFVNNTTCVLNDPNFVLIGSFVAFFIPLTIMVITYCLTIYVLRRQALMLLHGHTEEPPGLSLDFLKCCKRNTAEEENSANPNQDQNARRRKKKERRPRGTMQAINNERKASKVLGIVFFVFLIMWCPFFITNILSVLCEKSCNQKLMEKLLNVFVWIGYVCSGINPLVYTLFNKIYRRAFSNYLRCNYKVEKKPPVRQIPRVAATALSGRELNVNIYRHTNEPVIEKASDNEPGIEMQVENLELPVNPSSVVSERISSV
# assayMethodText: Competition assay to measure binding affinity at 5-HT2C receptor
# runParameters: test ligand 10 μM; [125I](±)DOI 0.1 nM
propertyMeasured: HT2C, percent of control-specific binding (%)
One number for each entry, in %.

Record excerpt, results attached:
>>> reportedresult("CC(Cc1ccc2c(c1)OCO2)NC1CCC1 (stereo not drawn) [A(I)]")
28
>>> reportedresult("c1cc2c(cc1CCN1CCOCC1)OCO2 [A(VII)]")
4
>>> reportedresult("CCOc1c(OC)cc(CCN)cc1OC [escaline]")
95
>>> reportedresult("CC(Cc1ccc2c(c1)OCCO2)NCc1cc2c(cc1Br)OCO2 (stereo not drawn) [A(IX)]")
88
>>> reportedresult("CN(C)CCCN1c2ccccc2CCc2ccccc21 [Imipramine, reference compound]")
98

Proceed to the following item.
Ask | What value of HT2C, percent of control-specific binding has been reported for the following compound? O=C(Cc1c(Br)ccc2c1OCO2)N1CCCC1 [A(XXVI)]
Reply | 1

====

# experimentalTarget: MT1 (ML1A) (h) (Homo sapiens)
# Construct: host or cells: CHO cells
# Sequence (P48039 whole entry): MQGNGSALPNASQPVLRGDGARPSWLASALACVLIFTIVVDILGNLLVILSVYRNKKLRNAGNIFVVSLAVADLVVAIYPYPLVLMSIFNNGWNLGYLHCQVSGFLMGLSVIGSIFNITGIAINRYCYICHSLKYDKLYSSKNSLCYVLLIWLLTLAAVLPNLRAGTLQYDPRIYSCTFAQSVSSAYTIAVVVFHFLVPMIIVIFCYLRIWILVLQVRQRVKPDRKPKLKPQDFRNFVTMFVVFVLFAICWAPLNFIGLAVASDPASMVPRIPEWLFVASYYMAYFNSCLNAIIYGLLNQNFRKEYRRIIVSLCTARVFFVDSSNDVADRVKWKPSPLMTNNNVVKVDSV
# assayMethodText: Competition assay to measure binding affinity at MT1 receptor
# runParameters: test ligand 10 μM; [125I]2-iodomelatonin 0.01 nM
Kindly supply the reported MT1, percent of control-specific binding values for the records listed here.
Answers are plain numbers, in %.

Sample records with MT1, percent of control-specific binding:
>>> reportedresult("COc1cc(CCN)cc(OC)c1OC")
6
>>> reportedresult("COc1cc2c(cc1CNC(C)Cc1ccc3c(c1)OCO3)OCO2 (centres unmarked)")
23
>>> reportedresult("c1cc2c(cc1CCN1CCOCC1)OCO2")
0

Would you mind giving MT1, percent of control-specific binding for every compound in the list below?
1. CC(NC(C)(C)C)C(=O)c1cccc(Cl)c1 (centres unmarked) [Bupropion, reference compound]
2. N#CC(Cc1ccc2c(c1)OCO2)NC1CCC1 (centres unmarked)
3. N#Cc1ccc2[nH]cc(CCCCN3CCN(c4ccc5oc(C(N)=O)cc5c4)CC3)c2c1 [Vilazodone, reference compound]
4. O=c1n(CCCN2CCN(c3cccc(Cl)c3)CC2)nc2ccccn12 [Trazodone, reference compound]
5. CN(C)CCCN1c2ccccc2CCc2ccccc21 [Imipramine, reference compound]

Reply |
1. 83
2. 14
3. 84
4. 14
5. 29

Each compound below has a reported value. Please supply its MT1, percent of control-specific binding.
1. CC(Cc1ccc2c(c1)OCCO2)NCc1cc2c(cc1Br)OCO2 (centres unmarked)
2. COc1cc2c(cc1CC(=O)N1CCCC1)OCO2
3. N[C@@H](Cc1c[nH]c2ccccc12)C(=O)O [tryptophan, reference compound]
4. c1cc(CCN2CCCC2)c2c(c1)OCO2
5. NCCc1c[nH]c2ccc(O)cc12 [serotonin, reference compound]

Reply |
24
7
−2
1
7

Ask | Bench note: what MT1, percent of control-specific binding did CC(Cc1ccc2c(c1)OCCO2)NCc1ccc2c(c1)OCO2 (centres unmarked) show?
Reply | 6

Origin of measurements: patent US12428408B2
